Molecular target: CDK9/CycT1 (Homo sapiens)
Sequence (P50750 whole entry): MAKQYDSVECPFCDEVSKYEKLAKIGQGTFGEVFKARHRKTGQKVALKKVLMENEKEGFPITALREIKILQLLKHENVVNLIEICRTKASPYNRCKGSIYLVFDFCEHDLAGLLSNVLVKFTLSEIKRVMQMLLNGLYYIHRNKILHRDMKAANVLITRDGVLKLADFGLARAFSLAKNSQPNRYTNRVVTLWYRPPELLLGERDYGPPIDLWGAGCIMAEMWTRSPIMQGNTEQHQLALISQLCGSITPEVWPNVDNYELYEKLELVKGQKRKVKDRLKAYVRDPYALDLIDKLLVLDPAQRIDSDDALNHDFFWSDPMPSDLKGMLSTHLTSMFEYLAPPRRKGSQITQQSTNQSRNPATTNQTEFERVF
Sequence (O60563 whole entry partner): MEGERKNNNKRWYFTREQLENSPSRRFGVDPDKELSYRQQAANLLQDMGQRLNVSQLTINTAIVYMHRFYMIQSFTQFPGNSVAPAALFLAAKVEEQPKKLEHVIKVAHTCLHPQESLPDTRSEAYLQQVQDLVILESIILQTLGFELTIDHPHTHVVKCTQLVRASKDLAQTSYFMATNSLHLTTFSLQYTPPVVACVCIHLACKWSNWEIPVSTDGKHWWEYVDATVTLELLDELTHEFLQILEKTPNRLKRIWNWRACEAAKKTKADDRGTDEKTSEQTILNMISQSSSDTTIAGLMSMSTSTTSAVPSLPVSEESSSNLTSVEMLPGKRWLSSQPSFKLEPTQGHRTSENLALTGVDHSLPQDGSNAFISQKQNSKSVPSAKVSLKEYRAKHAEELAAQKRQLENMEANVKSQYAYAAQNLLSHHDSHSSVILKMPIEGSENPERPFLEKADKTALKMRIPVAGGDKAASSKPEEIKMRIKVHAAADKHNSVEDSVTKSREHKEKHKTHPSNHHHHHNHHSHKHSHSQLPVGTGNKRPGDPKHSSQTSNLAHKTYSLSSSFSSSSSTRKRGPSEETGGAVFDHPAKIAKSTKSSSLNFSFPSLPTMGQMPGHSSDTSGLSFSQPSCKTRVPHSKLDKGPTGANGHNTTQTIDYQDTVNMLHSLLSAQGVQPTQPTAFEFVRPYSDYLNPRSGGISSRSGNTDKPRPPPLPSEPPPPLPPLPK
Experiment: ADP-Glo Kinase Assay
Conditions: Table 1; assay not given
Some molecules, each annotated with its measured IC50.

# molecule, reported_result
measured = [
    ("CC(C)c1c2cc(-c3ccnc(N[C@H]4CC[C@H](NC(=O)N5CCN(CCCCCc6ccc7c(c6)C(=O)N(C6CCC(=O)NC6=O)C7=O)CC5)C4)n3)cc(F)c2nn1C (stereo partly drawn)", "≤ 5 nM"),
    ("CC(C)c1c2cc(-c3ccnc(N[C@H]4CC[C@H](NCc5ccc(-c6ccccn6)cc5)C4)n3)ccc2nn1C", "5 to 1000 nM"),
    ("CC(C)c1c2cc(-c3ccnc(N[C@H]4CC[C@H](NCc5cccc6c5C(=O)N(C5CCC(=O)NC5=O)C6=O)C4)n3)cc(F)c2nn1C (stereo partly drawn)", "5 to 1000 nM"),
    ("CC(C)c1c2cc(-c3ccnc(N[C@H]4CC[C@H](NC(=O)N5CCN(CCCCCc6cccc7c6CN(C6CCC(=O)NC6=O)C7=O)CC5)C4)n3)ccc2nn1C (stereo partly drawn)", "≤ 5 nM"),
    ("CC(C)c1c2cc(-c3ccnc(N[C@H]4CC[C@H](NCc5cccc6c5CN(C5CCC(=O)NC5=O)C6=O)C4)n3)ccc2nn1C (stereo partly drawn)", "≤ 5 nM"),
]

Exam item: Identify measured IC50 associated with CC(C)c1c2cc(-c3ccnc(N[C@H]4CC[C@H](NCc5ccc(-c6ccccn6)cc5)C4)n3)cc(F)c2nn1C
Marked response: 5 to 1000 nM

Exam item: Identify measured IC50 associated with CC(C)c1c2cc(-c3ccnc(N[C@H]4CC[C@H](NCCCCCc5cccc6c5C(=O)N(C5CCC(=O)NC5=O)C6=O)C4)n3)ccc2nn1C (stereo partly drawn)
Marked response: 5 to 1000 nM

Exam item: Identify measured IC50 associated with CC(C)c1c2cc(-c3ccnc(N[C@H]4CC[C@H](NCc5cccc6c5CN(C5CCC(=O)NC5=O)C6=O)C4)n3)cc(F)c2nn1C (stereo partly drawn)
Marked response: ≤ 5 nM
